FYI, the data here is from ChEMBL document CHEMBL3421595.

Here the recorded Ratio IC50 is given for each entry.
species on record: Homo sapiens; assay: Selectivity index, ratio of IC50 for human CYP1A2 to IC50 for human CYP1B1
Format: numeric value only, no unit, no commentary.

Some molecules with known Ratio IC50 results, for comparison:
COc1ccc(OC)c2c1c(OC)cc1c(=O)c(OCCCCOC(=O)CN)c(-c3cccc(F)c3)oc12 :: 3.3
COc1ccc(OC)c2c1c(OC)cc1c(=O)c(O)c(-c3ccccc3Cl)oc12 :: 31
COc1ccc(OC)c2c1c(OC)cc1c(=O)cc(-c3ccccc3O)oc12 :: 0.8

Specify reported Ratio IC50 for the molecule shown: `COc1ccc(OC)c2c1c(OC)cc1c(=O)c(OCCOC(=O)[C@@H](N)C(C)C)c(-c3cccc(F)c3)oc12` 0.6

Determine its reported Ratio IC50: `COc1ccc(OC)c2c1c(OC)cc1c(=O)c(O)c(-c3cccc(F)c3)oc12` 88
